- Test system: K562
- procedure.details: Antiproliferative activity against human K562 cells assessed as cell growth inhibition incubated for 8 hrs by CCK8 assay
- Assay type: functional, cell-based
- experimental.parameters: K562, 8 h
recorded.metric: IC50 (nM)
Write the value in nM as a bare number.

Recorded IC50, per entry:
* CN1c2ccc(F)cc2C(=O)N2CCc3c([nH]c4ccc(OCc5cccc(C(=O)Nc6ccccc6N)c5)cc34)C21 (configuration not stated) | 1380
* CN1c2ccc(F)cc2C(=O)N2CCc3c([nH]c4ccc(OCc5ccc(/C=C/C(=O)Nc6ccccc6N)cc5)cc34)C21 (configuration not stated) | 120
* CN1c2ccc(F)cc2C(=O)N2CCc3c([nH]c4ccc(OCc5ccc(C(=O)NO)cc5)cc34)C21 (configuration not stated) | 250

Next:
Quick one: give measured IC50 for CN1c2ccc(F)cc2C(=O)N2CCc3c([nH]c4ccc(OCCCCCCC(=O)Nc5ccccc5N)cc34)C21 (configuration not stated)
1380

###

- procedure.details: Metabolic stability in ICR mouse liver microsome assessed as half life
- Format: ADME
- experimental.parameters: liver microsomes
recorded.metric: half-life (min)
Reply numerically in min, unit not repeated.

Return half-life for the following compound: CN1c2ccc(F)cc2C(=O)N2CCc3c([nH]c4ccc(OCc5ccc(/C=C/C(=O)NO)cc5)cc34)C21 (stereo unspecified)
31.5

###

- target.under.test: Histone deacetylase 1 (Homo sapiens, UniProt Q13547)
- Sequence (Q13547 whole entry): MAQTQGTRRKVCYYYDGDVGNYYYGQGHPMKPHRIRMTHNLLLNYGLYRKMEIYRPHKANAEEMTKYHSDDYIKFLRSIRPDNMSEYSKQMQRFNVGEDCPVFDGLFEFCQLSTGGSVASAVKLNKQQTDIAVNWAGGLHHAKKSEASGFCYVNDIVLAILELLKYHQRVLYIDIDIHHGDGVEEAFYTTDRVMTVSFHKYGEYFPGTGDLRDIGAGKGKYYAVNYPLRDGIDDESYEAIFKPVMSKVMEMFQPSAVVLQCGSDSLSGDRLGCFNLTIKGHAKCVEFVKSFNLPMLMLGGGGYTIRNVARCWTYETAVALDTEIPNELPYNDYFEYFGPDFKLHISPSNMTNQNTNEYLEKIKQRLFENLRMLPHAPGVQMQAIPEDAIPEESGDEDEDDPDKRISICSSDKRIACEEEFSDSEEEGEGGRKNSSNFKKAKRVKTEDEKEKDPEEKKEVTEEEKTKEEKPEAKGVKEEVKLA
- procedure.details: Inhibition of full-length recombinant human HDAC1 expressed in Baculovirus expression system using Ac-Leu-Gly-Lys(Ac)-AMC as substrate preincubated for 5 mins followed by substrate addition and further incubated for 30 mins by fluorescence based microtiter plate reader assay
Mark each entry met if its IC50 sits below 30 nM, and not met for all others.

Below are worked cases with known answers.
* CN1c2ccc(F)cc2C(=O)N2CCc3c([nH]c4ccc(OCCCCCCCC(=O)NO)cc34)C21 (stereo not drawn) | not met
* CN1c2ccc(F)cc2C(=O)N2CCc3c([nH]c4ccc(OCCCCC(=O)NO)cc34)C21 (stereo not drawn) | met
* CN1c2ccc(F)cc2C(=O)N2CCc3c([nH]c4ccc(OCc5ccc(CC(=O)NO)cc5)cc34)C21 (stereo not drawn) | not met
* CN1c2ccc(F)cc2C(=O)N2CCc3c([nH]c4ccc(OCCCC(=O)Nc5ccccc5N)cc34)C21 (stereo not drawn) | not met
* CN1c2ccc(F)cc2C(=O)N2CCc3c([nH]c4ccc(OCCCCCC(=O)Nc5ccccc5N)cc34)C21 (stereo not drawn) | not met

Please state whether IC50 is below 30 nM for CN1c2ccc(F)cc2C(=O)N2CCc3c([nH]c4ccc(OCCCCCCC(=O)NO)cc34)C21 (stereo not drawn)
met

hey, is IC50 for CN1c2ccc(F)cc2C(=O)N2CCc3c([nH]c4ccc(OCc5ccc(C(=O)Nc6ccccc6N)cc5)cc34)C21 (stereo not drawn) lower than 30 nM or not?
not met

Please indicate whether the reported IC50 of CN1c2ccc(F)cc2C(=O)N2CCc3c([nH]c4ccc(OCCCCC(=O)Nc5ccccc5N)cc34)C21 (stereo not drawn) is strictly below 30 nM.
not met

###

- target.under.test: UniProt P11387
- Sequence (P11387 whole entry): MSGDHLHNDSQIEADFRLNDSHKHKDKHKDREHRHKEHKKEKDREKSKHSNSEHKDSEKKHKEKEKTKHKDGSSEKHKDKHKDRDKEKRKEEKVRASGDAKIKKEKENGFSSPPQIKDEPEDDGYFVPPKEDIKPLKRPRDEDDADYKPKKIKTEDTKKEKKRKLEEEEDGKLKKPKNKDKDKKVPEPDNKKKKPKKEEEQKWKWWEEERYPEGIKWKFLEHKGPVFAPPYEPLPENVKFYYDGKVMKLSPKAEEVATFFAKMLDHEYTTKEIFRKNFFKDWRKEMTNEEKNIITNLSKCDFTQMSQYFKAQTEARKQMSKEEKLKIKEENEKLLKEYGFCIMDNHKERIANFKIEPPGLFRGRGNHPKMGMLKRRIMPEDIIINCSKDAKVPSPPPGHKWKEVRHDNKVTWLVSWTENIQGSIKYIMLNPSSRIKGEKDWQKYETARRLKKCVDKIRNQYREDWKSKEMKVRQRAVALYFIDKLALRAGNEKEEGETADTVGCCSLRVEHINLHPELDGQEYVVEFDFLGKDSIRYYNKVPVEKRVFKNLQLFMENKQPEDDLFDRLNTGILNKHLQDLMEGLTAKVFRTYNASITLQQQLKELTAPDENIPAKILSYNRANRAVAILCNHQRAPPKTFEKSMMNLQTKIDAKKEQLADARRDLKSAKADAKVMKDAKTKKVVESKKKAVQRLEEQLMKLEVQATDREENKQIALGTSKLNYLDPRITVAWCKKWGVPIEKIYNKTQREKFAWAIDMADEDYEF
- procedure.details: Inhibition of recombinant Top1 (unknown origin) assessed as inhibition of relaxation of supercoiled pBR322 plasmid DNA at 100 uM incubated for 15 mins by ethidium bromide staining based agarose gel electrophoresis analysis
Active and inactive are the calls of the source. The rule behind the calls is not given here.
recorded.metric: inhibition

• CN1c2ccc(F)cc2C(=O)N2CCc3c([nH]c4ccc(OCCCCCC(=O)Nc5ccccc5N)cc34)C21 (stereo not given) = inactive
• CN1c2ccc(F)cc2C(=O)N2CCc3c([nH]c4ccc(OCc5ccc(C(=O)NO)cc5)cc34)C21 (stereo not given) = inactive
• CN1c2ccc(F)cc2C(=O)N2CCc3c([nH]c4ccc(OCc5ccccc5C(=O)NO)cc34)C21 (stereo not given) = Active
• CN1c2ccc(F)cc2C(=O)N2CCc3c([nH]c4ccc(OCCCCC(=O)Nc5ccccc5N)cc34)C21 (stereo not given) = inactive
• CN1c2ccc(F)cc2C(=O)N2CCc3c([nH]c4ccc(OCc5cccc(C(=O)NO)c5)cc34)C21 (stereo not given) = Active

Answer with the recorded inhibition of CN1c2ccc(F)cc2C(=O)N2CCc3c([nH]c4ccc(OCCCCCCCC(=O)NO)cc34)C21 (stereo not given) only.
Active

Quick one: give measured inhibition for CN1c2ccc(F)cc2C(=O)N2CCc3c([nH]c4ccc(OCc5ccc(/C=C/C(=O)Nc6ccccc6N)cc5)cc34)C21 (stereo not given)
Active

Name the recorded inhibition of the compound listed here: CN1c2ccc(F)cc2C(=O)N2CCc3c([nH]c4ccc(OCCCCC(=O)NO)cc34)C21 (stereo not given)
inactive

# return recorded inhibition for input CN1c2ccc(F)cc2C(=O)N2CCc3c([nH]c4ccc(OCc5ccc(CC(=O)NO)cc5)cc34)C21 (stereo not given)
Active

# return recorded inhibition for entry CN1c2ccc(F)cc2C(=O)N2CCc3c([nH]c4ccc(OCCCC(=O)Nc5ccccc5N)cc34)C21 (stereo not given)
inactive
